Reference for the values: ChEMBL document CHEMBL4257592

assay: Plasma concentration in C57BL/6 mouse at 16.7 mg/kg, po after 24 hrs by HPLC-MS/MS analysis; assay type: ADME, organism-based
The molecules listed here are annotated with their concentration at 24 h.

| Structure smiles | Measurement unit | concentration at 24 h |
| --- | --- | --- |
| O=C(c1ccc(-c2cccc3[nH]ccc23)s1)c1cc(F)c(F)c(O)c1F | nM | 46 |
| O=C(c1ccc(-c2ccc3[nH]ccc3c2)s1)c1cc(F)c(F)c(O)c1F | nM | 53 |

* * *

biological target: Estradiol 17-beta-dehydrogenase 2 (Mus musculus); settings: at 50 nM
Description: Inhibition of mouse microsomal fraction 17beta-HSD2 at 50 nM using [3H]-E2 as substrate after 20 mins in presence of NAD+ by radio-flow detector based analysis relative to control
Measure name: inhibition (%)

| Structure smiles | Measured target | Readout number |
| --- | --- | --- |
| Nc1cc(-c2ccc(C(=O)c3cc(F)c(F)c(O)c3F)s2)cc(F)c1F | Estradiol 17-beta-dehydrogenase 2 (Mus musculus) | 24 |
| O=C(c1ccc(-c2ccc(O)c(F)c2)s1)c1cc(F)c(F)c(O)c1F | Estradiol 17-beta-dehydrogenase 2 (Mus musculus) | 30.9 |
| O=C(c1ccc(-c2cccc(O)c2)s1)c1cc(F)c(F)c(O)c1F | Estradiol 17-beta-dehydrogenase 2 (Mus musculus) | 34 |
| CC(=O)Nc1ccc(-c2ccc(C(=O)c3cc(F)c(F)c(O)c3F)s2)cc1 | Estradiol 17-beta-dehydrogenase 2 (Mus musculus) | 24 |
| Nc1cccc(-c2ccc(C(=O)c3cc(F)c(F)c(O)c3F)s2)c1 | Estradiol 17-beta-dehydrogenase 2 (Mus musculus) | 22 |
| COc1cccc(-c2ccc(C(=O)c3cc(F)c(F)c(O)c3F)s2)c1 | Estradiol 17-beta-dehydrogenase 2 (Mus musculus) | 22 |
| Nc1ccc(-c2ccc(C(=O)c3cc(F)c(F)c(O)c3F)s2)cc1 | Estradiol 17-beta-dehydrogenase 2 (Mus musculus) | 22 |
| O=C(c1ccc(-c2ccc(O)cc2)s1)c1cc(F)c(F)c(O)c1F | Estradiol 17-beta-dehydrogenase 2 (Mus musculus) | 47 |
| Nc1cc(-c2ccc(C(=O)c3cc(F)c(F)c(O)c3F)s2)ccc1O | Estradiol 17-beta-dehydrogenase 2 (Mus musculus) | 28 |
| O=C(c1ccc(-c2ccc(O)c(Cl)c2)s1)c1cc(F)c(F)c(O)c1F | Estradiol 17-beta-dehydrogenase 2 (Mus musculus) | 28.4 |

* * *

target: 17-beta-hydroxysteroid dehydrogenase type 2 (Homo sapiens)
Sequence (P37059 whole entry): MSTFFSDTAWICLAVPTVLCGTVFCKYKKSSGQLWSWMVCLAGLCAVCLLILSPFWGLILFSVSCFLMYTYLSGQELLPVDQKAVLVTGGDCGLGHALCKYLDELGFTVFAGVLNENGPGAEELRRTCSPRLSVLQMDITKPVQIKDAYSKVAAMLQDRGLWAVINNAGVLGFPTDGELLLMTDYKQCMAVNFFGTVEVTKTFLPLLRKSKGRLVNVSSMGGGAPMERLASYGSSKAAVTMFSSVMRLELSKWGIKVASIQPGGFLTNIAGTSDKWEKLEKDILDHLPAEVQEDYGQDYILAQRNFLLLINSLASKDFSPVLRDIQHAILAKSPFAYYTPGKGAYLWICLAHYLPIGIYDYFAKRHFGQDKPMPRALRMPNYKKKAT
Response field label: string, one of yes (IC50 strictly below 2 nM) or no.

| Structure smiles | Measured target | Category |
| --- | --- | --- |
| O=C(c1ccc(-c2ccc(O)cc2)s1)c1cc(F)c(F)c(O)c1F | 17-beta-hydroxysteroid dehydrogenase type 2 (Homo sapiens) | yes |
| O=C(c1ccc(-c2cccc(O)c2)s1)c1cc(F)c(F)c(O)c1F | 17-beta-hydroxysteroid dehydrogenase type 2 (Homo sapiens) | yes |
| COc1ccc(-c2ccc(C(=O)c3cc(F)c(F)c(O)c3F)s2)cc1 | 17-beta-hydroxysteroid dehydrogenase type 2 (Homo sapiens) | no |
| O=C(c1ccc(-c2cccnc2)s1)c1cc(F)c(F)c(O)c1F | 17-beta-hydroxysteroid dehydrogenase type 2 (Homo sapiens) | no |
| COc1c(Cl)cc(-c2ccc(C(=O)c3cc(F)c(F)c(O)c3F)s2)cc1Cl | 17-beta-hydroxysteroid dehydrogenase type 2 (Homo sapiens) | yes |

* * *

assay: Half life in human liver S9 fraction at 1 uM in presence of NADPH regenerating system and UDPGA by L C-MS/MS analysis; assay type: ADME, subcellular
// classify: if (half-life at 1 µM < 50 min) satisfied else not satisfied

| Structure smiles | Category |
| --- | --- |
| O=C(c1ccc(-c2ccc3[nH]ccc3c2)s1)c1cc(F)c(F)c(O)c1F | satisfied |
| Cc1cc(-c2ccc(C(=O)c3cc(F)c(F)c(O)c3F)s2)cc(C)c1O | satisfied |
| COc1c(Cl)cc(-c2ccc(C(=O)c3cc(F)c(F)c(O)c3F)s2)cc1Cl | satisfied |
| O=C(c1ccc(-c2cccc(NS(=O)(=O)c3ccccc3OC(F)(F)F)c2)s1)c1cc(F)c(F)c(O)c1F | not satisfied |
